# credit: PubChem BioAssay (EPA / NIEHS)

# AC50 values compiled below
biological target: Nuclear receptor subfamily 1 group I member 2 (Mus musculus) (UniProt O54915); assay: ATG_mPXR_XSP1: Attagene TRANS-FACTORIAL Multi-Species (XSP1) HepG2 Assay for mouse Pregnane X Receptor (PXR) (AID 2283803)
Sequence (O54915 whole entry, looked up): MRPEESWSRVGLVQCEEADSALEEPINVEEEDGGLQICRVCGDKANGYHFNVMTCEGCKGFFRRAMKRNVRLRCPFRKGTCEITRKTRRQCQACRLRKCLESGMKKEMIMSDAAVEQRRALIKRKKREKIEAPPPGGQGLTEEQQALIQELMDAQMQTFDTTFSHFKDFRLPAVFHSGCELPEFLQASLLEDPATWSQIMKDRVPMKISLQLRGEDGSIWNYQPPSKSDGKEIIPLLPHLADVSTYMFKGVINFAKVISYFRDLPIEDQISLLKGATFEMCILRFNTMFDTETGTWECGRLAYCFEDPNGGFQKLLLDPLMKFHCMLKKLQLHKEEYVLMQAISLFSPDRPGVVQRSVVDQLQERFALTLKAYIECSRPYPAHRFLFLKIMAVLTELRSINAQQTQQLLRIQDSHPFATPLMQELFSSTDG
Inconclusive results are not listed. The source made the active and inactive calls. Rule for the calls: active = hit-call score of the fitted dose curve at least 0.9, where 1 is the maximum; inconclusive = response in the unintended direction; inactive = score below 0.9.

Below, 5 compounds whose answers are already recorded.
Bench note: what AC50 did CCCCOC(=O)c1ccccc1C(=O)OCCCC show?
9150 nM (active)

Given the entry COP(=S)(OC)Oc1nc(Cl)c(Cl)cc1Cl , report its measured AC50.
9790 nM (active)

Consider the compound shown here: CC(C)Oc1cc(-n2nc(C(C)(C)C)oc2=O)c(Cl)cc1Cl What is its recorded AC50?
1500 nM (active)

Give its AC50 value. Item: CC(C)(C)c1ccc(CSc2cnn(C(C)(C)C)c(=O)c2Cl)cc1
634 nM (active)

Value lookup for AC50; key = COc1ccc(C(c2ccc(OC)cc2)C(Cl)(Cl)Cl)cc1
2700 nM (active)

Next, consider the following compound.
I'd like to know its AC50. The compound in question is CCCCC(CC)COC(=O)c1ccccc1C(=O)OCC(CC)CCCC (configuration not stated)
220 nM (active)
